- test.method.notes: Cmax in dog in 12 month toxicology study
- Type: ADME, organism-based, Canis lupus familiaris
- particulars: in vivo
endpoint.label: Cmax at 12 month

// Cmax at 12 month lookup, key: CC1(C)OCCn2c1nc(C(=O)NCc1ccc(F)cc1)c(O)c2=O
≥ 67 µg/mL

---

- test.method.notes: Tmax in Beagle dog at 5.2 mg/kg, po
- Type: ADME, organism-based, Canis lupus familiaris
- particulars: in vivo
endpoint.label: Tmax (min)
Reply numerically in min, unit not repeated.

Given CC1(C)OCCn2c1nc(C(=O)NCc1ccc(F)cc1)c(O)c2=O , state its recorded Tmax.
15

---

- test.method.notes: Solubility of the compound at pH 8.5
- Format: physicochemical
- particulars: buffer
endpoint.label: solubility (µg/mL)
Write it as a number; the unit µg/mL goes unstated.

# get_value(readout='solubility', item= CC1(C)OCCn2c1nc(C(=O)NCc1ccc(F)cc1)c(O)c2=O )
234

---

- test.method.notes: Volume of distribution at steady state in Sprague-Dawley rat at 0.87 mg/kg, iv
- Format: ADME, organism-based
- particulars: in vivo, read-out: Vdss
endpoint.label: Vd (L/kg)
Write the number in L/kg without appending the unit.

Find the recorded Vd belonging to CC1(C)OCCn2c1nc(C(=O)NCc1ccc(F)cc1)c(O)c2=O and report it.
0.86

---

- experimental.target: Cytochrome P450 2D6 (Homo sapiens)
- Sequence (P10635 whole entry): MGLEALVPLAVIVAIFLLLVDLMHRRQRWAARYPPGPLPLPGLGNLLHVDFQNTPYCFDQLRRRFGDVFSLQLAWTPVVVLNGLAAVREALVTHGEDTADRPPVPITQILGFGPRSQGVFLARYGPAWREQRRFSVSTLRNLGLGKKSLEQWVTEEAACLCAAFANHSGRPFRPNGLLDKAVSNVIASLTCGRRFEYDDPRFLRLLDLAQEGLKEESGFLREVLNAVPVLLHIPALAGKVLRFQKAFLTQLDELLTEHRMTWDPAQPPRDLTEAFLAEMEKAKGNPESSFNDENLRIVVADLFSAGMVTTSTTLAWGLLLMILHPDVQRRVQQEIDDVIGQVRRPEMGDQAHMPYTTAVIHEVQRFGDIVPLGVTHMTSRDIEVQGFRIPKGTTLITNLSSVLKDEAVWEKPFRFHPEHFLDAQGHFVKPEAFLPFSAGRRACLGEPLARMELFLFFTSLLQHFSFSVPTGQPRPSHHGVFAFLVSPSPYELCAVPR
pIC50: −log10 of the molar value.
endpoint.label: pIC50

Endpoint output: pIC50 of CC1(C)OCCn2c1nc(C(=O)NCc1ccc(F)cc1)c(O)c2=O . Value?
< 4.40

---

- test.method.notes: AUC in Sprague-Dawley rat at 4.4 mg/kg, po
- Type: ADME, organism-based
- particulars: in vivo
endpoint.label: AUC

Requested read-out: AUC. Entry: CC1(C)OCCn2c1nc(C(=O)NCc1ccc(F)cc1)c(O)c2=O
19.1 µM·h

---

- test.method.notes: AUC in Beagle dog at 5.2 mg/kg, po
- Assay type: ADME, organism-based, Canis lupus familiaris
- particulars: in vivo
endpoint.label: AUC

# AUC lookup, item CC1(C)OCCn2c1nc(C(=O)NCc1ccc(F)cc1)c(O)c2=O
162 µM·h

---

- test.method.notes: Cmax in Beagle dog at 5.2 mg/kg, po
- Format: ADME, organism-based, Canis lupus familiaris
- Parameters: dose 5.2 mg/kg, route oral
- particulars: in vivo
endpoint.label: Cmax (µM)
A number alone suffices; assume µM.

Would you mind telling me what Cmax value was observed for CC1(C)OCCn2c1nc(C(=O)NCc1ccc(F)cc1)c(O)c2=O ?
72.8

---

- test.method.notes: Drug metabolism in human microsomes assessed as CYP-mediated metabolism by measuring compound half life
- Format: ADME
endpoint.label: half-life (h)
Express the result in h but write the number alone.

For the compound CC1(C)OCCn2c1nc(C(=O)NCc1ccc(F)cc1)c(O)c2=O , what half-life is on record?
1.83

---

pIC50: −log10 of the molar value.
endpoint.label: pIC50

What pIC50 appears in the records for this compound with Cytochrome P450 2C9 (Homo sapiens, UniProt P11712)? CC1(C)OCCn2c1nc(C(=O)NCc1ccc(F)cc1)c(O)c2=O
Sequence (P11712 whole entry): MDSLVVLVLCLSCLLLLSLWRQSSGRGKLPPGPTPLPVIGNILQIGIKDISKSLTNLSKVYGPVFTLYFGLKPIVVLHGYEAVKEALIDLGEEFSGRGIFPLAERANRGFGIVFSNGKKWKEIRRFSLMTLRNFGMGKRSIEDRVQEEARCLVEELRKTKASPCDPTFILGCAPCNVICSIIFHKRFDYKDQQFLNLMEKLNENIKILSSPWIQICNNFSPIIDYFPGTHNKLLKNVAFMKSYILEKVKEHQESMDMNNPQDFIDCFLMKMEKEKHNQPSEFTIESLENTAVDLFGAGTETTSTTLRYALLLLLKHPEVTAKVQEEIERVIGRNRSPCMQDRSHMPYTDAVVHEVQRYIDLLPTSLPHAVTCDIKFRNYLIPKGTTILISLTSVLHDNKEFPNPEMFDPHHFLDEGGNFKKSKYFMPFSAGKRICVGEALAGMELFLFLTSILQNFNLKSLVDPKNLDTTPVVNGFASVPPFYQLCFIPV
< 4.40

---

- test.method.notes: Oral bioavailability in Beagle dog at 5.2 mg/kg
- Format: ADME, organism-based, Canis lupus familiaris
- particulars: in vivo
endpoint.label: bioavailability
Just so you know, I need the unit written after the number.

Field request: bioavailability | item: CC1(C)OCCn2c1nc(C(=O)NCc1ccc(F)cc1)c(O)c2=O
129%

---

- test.method.notes: Drug metabolism in dog liver microsomes assessed as CYP-mediated metabolism by measuring compound half life
- Format: ADME, Canis lupus familiaris
endpoint.label: half-life (h)
Report only the number, with the unit h understood.

Which value of half-life has been reported for CC1(C)OCCn2c1nc(C(=O)NCc1ccc(F)cc1)c(O)c2=O in the records?
1.78

---

- test.method.notes: Half-life in Beagle dog at 1 mg/kg, iv
- Format: ADME, organism-based, Canis lupus familiaris
- particulars: in vivo
endpoint.label: half-life (min)
Just the number please, in min, no unit attached.

So what does the record say about half-life for CC1(C)OCCn2c1nc(C(=O)NCc1ccc(F)cc1)c(O)c2=O ?
360

---

- test.method.notes: Volume of distribution at steady state in cynomolgus monkey at 1 mg/kg, iv
- Format: ADME, organism-based, Macaca fascicularis
- particulars: in vivo, read-out: Vdss
endpoint.label: Vd
Hey, just the number and the unit after it is fine.

Look at this compound and give its reported Vd. CC1(C)OCCn2c1nc(C(=O)NCc1ccc(F)cc1)c(O)c2=O
0.87 L/kg

---

- test.method.notes: Half-life in Sprague-Dawley rat at 0.87 mg/kg, iv
- Assay type: ADME, organism-based
- particulars: in vivo
endpoint.label: half-life (h)
Express your answer in h, writing the number without its unit.

Look at this molecule and give its reported half-life. CC1(C)OCCn2c1nc(C(=O)NCc1ccc(F)cc1)c(O)c2=O
4

---

endpoint.label: IC50

// fetch Cytochrome P450 2C19 (Homo sapiens, UniProt P33261) IC50 for CC1(C)OCCn2c1nc(C(=O)NCc1ccc(F)cc1)c(O)c2=O
> 40 µM

---

- experimental.target: Nuclear receptor subfamily 1 group I member 2 (Homo sapiens)
- Sequence (O75469 whole entry): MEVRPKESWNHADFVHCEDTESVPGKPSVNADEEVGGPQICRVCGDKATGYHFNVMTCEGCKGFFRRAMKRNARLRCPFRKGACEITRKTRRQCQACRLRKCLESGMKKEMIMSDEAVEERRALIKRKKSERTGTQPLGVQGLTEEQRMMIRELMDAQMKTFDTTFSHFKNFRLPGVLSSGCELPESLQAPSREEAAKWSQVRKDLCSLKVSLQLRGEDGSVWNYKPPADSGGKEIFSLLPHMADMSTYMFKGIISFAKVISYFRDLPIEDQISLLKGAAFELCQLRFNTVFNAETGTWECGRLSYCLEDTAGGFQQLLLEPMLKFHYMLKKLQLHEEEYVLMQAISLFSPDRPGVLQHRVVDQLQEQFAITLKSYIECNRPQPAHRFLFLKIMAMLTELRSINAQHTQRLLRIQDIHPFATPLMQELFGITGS
- test.method.notes: Transactivation of human PXR
pEC50: −log10 of the molar value.
endpoint.label: pEC50

Could you share which pEC50 value was measured for CC1(C)OCCn2c1nc(C(=O)NCc1ccc(F)cc1)c(O)c2=O ?
< 4.30

---

- test.method.notes: Clearance in Beagle dog at 1 mg/kg, iv
- Assay type: ADME, organism-based, Canis lupus familiaris
- particulars: in vivo
endpoint.label: clearance (mL/min/kg)
The response must be a number in mL/min/kg with no trailing unit.

Give its clearance value. Item: CC1(C)OCCn2c1nc(C(=O)NCc1ccc(F)cc1)c(O)c2=O
2

---

- test.method.notes: Dissociation constant, pKa of the compound
- Format: physicochemical
endpoint.label: pKa
Simply state the number, no unit and no words.

Would you kindly share the measured pKa for CC1(C)OCCn2c1nc(C(=O)NCc1ccc(F)cc1)c(O)c2=O ?
6.6

---

- test.method.notes: Oral bioavailability in Sprague-Dawley rat at 4.4 mg/kg
- Type: ADME, organism-based
- particulars: in vivo
endpoint.label: bioavailability (%)
Only the number, expressed in %, is required.

Request the reported bioavailability associated with CC1(C)OCCn2c1nc(C(=O)NCc1ccc(F)cc1)c(O)c2=O
86

---

- test.method.notes: Protein binding in human plasma
- Type: ADME, cell-free
- particulars: read-out: PPB (converted)
endpoint.label: fraction unbound

Return reported fraction unbound; argument: CC1(C)OCCn2c1nc(C(=O)NCc1ccc(F)cc1)c(O)c2=O
0.024

---

- test.method.notes: Ssolubility of the compound at pH 6.1
- Type: physicochemical
- particulars: buffer
endpoint.label: solubility (µg/mL)
Give the number; µg/mL is assumed, so skip it.

Record request: solubility value, item CC1(C)OCCn2c1nc(C(=O)NCc1ccc(F)cc1)c(O)c2=O
21

---

- test.method.notes: Drug metabolism in cynomolgus monkey liver microsomes assessed as CYP-mediated metabolism by measuring compound half life
- Assay type: ADME, Macaca fascicularis
endpoint.label: half-life (h)
Form entry: value (h) — number only.

Form field: reported half-life of CC1(C)OCCn2c1nc(C(=O)NCc1ccc(F)cc1)c(O)c2=O
1.6

---

- test.method.notes: Clearance in Sprague-Dawley rat at 0.87 mg/kg, iv
- Type: ADME, organism-based
- particulars: in vivo
endpoint.label: clearance (mL/min/kg)
Write it as a number; the unit mL/min/kg goes unstated.

Query (compound): CC1(C)OCCn2c1nc(C(=O)NCc1ccc(F)cc1)c(O)c2=O ; field requested: clearance
9.7

---

- experimental.target: Human immunodeficiency virus type 1 integrase (Human immunodeficiency virus 1, UniProt Q7ZJM1)
- Sequence (Q7ZJM1 whole entry): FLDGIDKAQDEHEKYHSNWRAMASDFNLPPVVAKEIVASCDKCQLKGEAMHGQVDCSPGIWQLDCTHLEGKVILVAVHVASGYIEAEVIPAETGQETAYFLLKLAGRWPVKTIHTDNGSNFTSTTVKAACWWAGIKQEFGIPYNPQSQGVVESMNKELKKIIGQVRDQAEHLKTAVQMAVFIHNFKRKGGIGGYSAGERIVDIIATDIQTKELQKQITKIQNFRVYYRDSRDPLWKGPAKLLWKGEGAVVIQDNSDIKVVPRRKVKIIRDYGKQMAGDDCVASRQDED
Strictly below 3 nM in IC50: YES. Otherwise: NO.

Hello, is IC50 of the following compound strictly smaller than 3 nM? O=C(NCc1ccc(F)cc1S(=O)(=O)N1CCOCC1)c1nc2n(c(=O)c1O)CCCC21CCCC1
NO

Hello, is IC50 of the following compound strictly smaller than 3 nM? CN(C)S(=O)(=O)c1c(CNC(=O)c2nc3n(c(=O)c2O)CCOC3(C)C)ccc(F)c1F
NO

Hello, I'm reviewing records and need to know if IC50 of CN(C)S(=O)(=O)c1cc(F)ccc1CNC(=O)c1nc2n(c(=O)c1O)CCCC21CCCC1 is below 3 nM. Could you check?
NO

Does the reported IC50 of the following compound sit strictly below 3 nM? CC1(C)OCCn2c1nc(C(=O)NCc1ccc(F)cc1S(C)(=O)=O)c(O)c2=O
NO

hey, is IC50 for Cc1cc(CNC(=O)c2nc3n(c(=O)c2O)CCCC32CCCC2)ccc1F lower than 3 nM or not?
YES

hey, is IC50 for Cc1cc(F)ccc1CNC(=O)c1nc2n(c(=O)c1O)CCOC2(C)C lower than 3 nM or not?
YES

Please indicate whether the reported IC50 of O=C(NCc1ccc(F)cc1N1CCCCS1(=O)=O)c1nc2n(c(=O)c1O)CCCC21CCCC1 is strictly below 3 nM.
NO

A record lists CC1(C)OCCn2c1nc(C(=O)NCc1ccc(F)cc1Cl)c(O)c2=O . Is its IC50 below 3 nM?
NO
